In this section we review reported ELISA signal values for a set of binders.
target: trypsin; assay: monoclonal phage ELISA on trypsin
endpoint.name: ELISA signal

F01 (EET 5-3 KnotBody) (scFv, V domains shown) VH: EVQLVESGGGLVRPGGSLRLSCAASGFTFSSYAMSWVRQAPGKGLEWVSAISGSGGSTYYADSVKGRFTISRDNTKNSLYLQMTSLRADDTAFYYCVKDFGPGYGTGWFDYWGPGTLVTVSS VL: YLNWYQQKPGKAPKLLIDAAGECGPNGFCGSGSDGGVCPRINMRCKQDSDCLAGCGRDSGVPSRFSGSGSGTDFTLTISSLQPEDFATYYCQQSYSTPWTFGQGTKVEIKR : 102000
E01 (EET 5-3 KnotBody) (scFv, V domains shown) VH: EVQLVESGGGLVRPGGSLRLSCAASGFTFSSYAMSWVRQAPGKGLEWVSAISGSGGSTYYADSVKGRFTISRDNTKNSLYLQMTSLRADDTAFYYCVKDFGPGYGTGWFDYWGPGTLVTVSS VL: AVNWYQQLPGKAPKLLIYAAGGCGPNGFCGSGSDGGVCPRILMRCKQDSDCLAGCGIHSGVSDRFSDSKSGTSASLAISGLQSEDEADYYCAAWDDSLNGYVFGTGTKLTVLG : 128000
F07 (EET 5-3 KnotBody) (scFv, V domains shown) VH: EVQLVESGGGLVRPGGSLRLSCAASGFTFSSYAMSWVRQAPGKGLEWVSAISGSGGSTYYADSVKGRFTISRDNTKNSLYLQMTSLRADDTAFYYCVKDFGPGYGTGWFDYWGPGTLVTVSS VL: AVNWYQQLPGKAPKLLIYAAGGCGPNGFCGSGSDGGVCPRILMRCKQDSDCLAGCGGQSGVPDRFSGSKSGTSASLAISRLQSEDEADYYCAAWDDSLNAYVFGTGTKVTVLG : 72800
G11 (EET 5-3 KnotBody) (scFv, V domains shown) VH: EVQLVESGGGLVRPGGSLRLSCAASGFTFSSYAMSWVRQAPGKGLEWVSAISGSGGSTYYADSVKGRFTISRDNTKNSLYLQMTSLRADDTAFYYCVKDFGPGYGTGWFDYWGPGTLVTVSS VL: AVNWYQQLPGKAPKLLIYAAGGCGPNGFCGSGSDGGVCPRILMRCKQDSDCLAGCGQSSGVSDRFSGSKSGTSATLDITGLQTGDEADYYCGTWDNSLSVGVFGGGTKVTVLG : 27600
